System: CCRF-CEM
runDescription: NCI tumour cell line growth inhibition, 48 h
Calls of active or inactive are those of the source. Rule as the data show it: active = GI50 up to about 1.1 µM and inactive = higher.
measuredQuantity: GI50

molecule	measuredQuantity	result
O=c1oc2ccccc2c(O)c1C1c2c(c3ccccc3oc2=O)Oc2c1c(=O)oc1ccccc21	GI50	36.5 µM (inactive)
CCCSc1ccc2[nH]c(N3C(=O)/C(=C/c4ccco4)N=C3c3ccccc3)cc2c1	GI50	19.3 µM (inactive)
O=C(CN1CCOCC1)c1ccc2c(c1)oc(=O)n2CCN1CCOCC1	GI50	> 100 µM (inactive)

-- ask Entry CC1=C(O)C(=O)C2C(=O)C1C(C)C2c1ccc(Cl)cc1 (stereo unspecified) has what GI50?
-- reply > 100 µM (inactive)

-- ask Entry Cc1ccc(-c2cc(-c3ccco3)nc(N)n2)o1 has what GI50?
-- reply > 100 µM (inactive)

-- ask Entry O=c1[nH]c(=O)n(C2OC(CO)C(O)C2O)cc1OCCc1ccccc1 (stereo unspecified) has what GI50?
-- reply > 100 µM (inactive)

----------
System: HT-29
runDescription: NCI tumour cell line growth inhibition, 48 h
Active and inactive are the calls of the source. Rule as the data show it: active = GI50 up to about 1.1 µM and inactive = higher.
Select the matching outcome among 1.0 (active), 0.0 (inactive)

Worked cases, answers included:
compound	labelValue
C=Cc1ccccc1C1(O)C=CC(OC)(OC)C=C1	0.0
COc1ccc(C(C2=C(C)C(=O)c3ccccc3C2=O)c2ccc(C(C)C)cc(=O)c2O)cc1 (stereo not given)	0.0
Cc1cc(-c2ccccc2)nc(Nc2cc3ccccc3[nH]2)n1	0.0
COc1cccc2c1C(=O)c1c(O)c3c(c(O)c1C2=O)C[C@@](O)(C(C)=O)C[C@@H]3OC1OC(C)C(O)C(N)C1Br (stereo not given in full)	1.0

--- query ---
-- ask Entry O=c1c2ccccc2[se]n1-c1cccnc1 : call = ?
-- reply 0.0

----------
Tested on: HT-29
runDescription: NCI tumour cell line growth inhibition, 48 h
Calls of active or inactive are those of the source. No stated cut-off is given here; in the data, active = GI50 up to about 1.1 µM and inactive = higher.
Select the matching outcome among 1 (yes) (active), 0 (no) (inactive)

Worked cases, answers included:
compound	labelValue
CCCCCC/C=C1\CCC(CN2CCOCC2)C1=O (centres undefined)	0 (no)
N#Cc1nc(-c2cnccn2)oc1N	0 (no)
CCOC(=O)C1=C(C)N(Cc2ccc(Cl)cc2Cl)C2(O)C=CC(=O)C3C(=O)N(c4ccccc4)C(=O)C132 (centres undefined)	0 (no)

-- ask Entry CC(=O)O[C@@H]1C[C@@]2(C)[C@@H]3CC=C4[C@@H](C[C@H](O)C(=O)C4(C)C)[C@]3(C)C(=O)C[C@]2(C)[C@H]1[C@@](C)(O)C(=O)/C=C/C(C)(C)OC(C)=O : call = ?
-- reply 1 (yes)

----------
Tested on: SN12C
runDescription: NCI tumour cell line growth inhibition, 48 h
Activity calls are given as the source filed them. Rule as the data show it: active = GI50 up to about 1.1 µM and inactive = higher.
Select the matching outcome among active, inactive

Worked cases, answers included:
compound	labelValue
O=C(O/N=C1/CCC/C1=C\c1ccccc1)c1ccc(Cl)cc1	inactive
NC(=O)C(C(N)=O)=C(O)/C(O)=C/C(=O)c1ccccc1	inactive
CCOC(=O)NC(=O)c1cn(CCOC(=O)NCCCCCCNC(=O)OCCn2cc(C(=O)NC(=O)OCC)c(=O)[nH]c2=O)c(=O)[nH]c1=O	inactive
COc1cc(OC)nc(NC(=O)NS(=O)(=O)c2cccc3ncn(C)c(=O)c23)n1	inactive
COC(=O)C1Cc2c(n(C)c3ccccc23)C(CCC(=O)O)N1Cc1ccccc1 (centres undefined)	inactive

-- ask Entry O=C(O)C[S+]([O-])c1ccc2c3c(cccc13)C(=O)c1ccccc1-2 (centres undefined) : call = ?
-- reply inactive

-- ask Entry Cc1cc(C2(c3cc(C)c(O)c4ncccc34)OC(=O)c3ccccc32)c2cccnc2c1O : call = ?
-- reply active

-- ask Entry CCC(C)CN1C(=O)NC(C)(Cc2ccccc2)C1=O (centres undefined) : call = ?
-- reply inactive

-- ask Entry COc1ccc(C(C2=C(C)C(=O)c3ccccc3C2=O)c2ccc(C(C)C)cc(=O)c2O)cc1 (centres undefined) : call = ?
-- reply inactive

Where do the numbers come from? From ChEMBL document CHEMBL1201862.
